# subject of test: Microtubule-associated protein tau (Homo sapiens) (UniProt P10636)
# Sequence (P10636 whole entry, looked up): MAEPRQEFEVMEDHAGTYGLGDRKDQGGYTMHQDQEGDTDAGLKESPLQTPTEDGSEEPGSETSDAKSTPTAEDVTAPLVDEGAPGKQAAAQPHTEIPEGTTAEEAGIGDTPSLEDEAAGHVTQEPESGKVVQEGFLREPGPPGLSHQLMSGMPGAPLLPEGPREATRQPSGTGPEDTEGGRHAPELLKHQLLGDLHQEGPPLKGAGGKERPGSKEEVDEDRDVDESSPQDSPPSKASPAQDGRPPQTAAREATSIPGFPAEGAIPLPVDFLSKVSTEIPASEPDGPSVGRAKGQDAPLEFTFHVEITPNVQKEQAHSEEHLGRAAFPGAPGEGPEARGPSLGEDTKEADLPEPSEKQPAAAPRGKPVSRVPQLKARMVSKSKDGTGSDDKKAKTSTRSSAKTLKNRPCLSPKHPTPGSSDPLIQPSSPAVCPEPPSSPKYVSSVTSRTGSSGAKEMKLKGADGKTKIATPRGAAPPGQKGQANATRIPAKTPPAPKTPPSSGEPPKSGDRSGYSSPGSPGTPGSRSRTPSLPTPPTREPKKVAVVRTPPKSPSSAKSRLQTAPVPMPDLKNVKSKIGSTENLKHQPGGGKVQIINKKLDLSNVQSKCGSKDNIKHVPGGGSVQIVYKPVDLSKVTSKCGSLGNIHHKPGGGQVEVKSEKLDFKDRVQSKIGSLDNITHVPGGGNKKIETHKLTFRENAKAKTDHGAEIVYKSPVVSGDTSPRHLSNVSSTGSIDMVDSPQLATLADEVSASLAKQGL
# method notes: qHTS Assay for Tau Filament Binding;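 also: actives lower thioflavin S fluorescence by blocking filaments or displacing dye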
# condition: recombinant tau filaments, thioflavin S fluorescence, 15 h, filaments grown with octadecylsulfate alongside compound; series mostly up to 57.1 µM
Among all 71,000 compounds or so, about 1,400 (2%) were called active. Another 3% or so got no clear call; they are omitted. Calls follow the shape of the dose curve; as a rule, active = well fitted curve in the direction sought with a large enough effect; inconclusive = small, poorly fitted or top-dose-only effect; inactive = no such curve, though single readings can be large or run the other way. Many of the other results were omitted from the sample, so actives are more common in it than they were.
// classify into Y (active), N (inactive)

Which outcome was entered for the compound COC(=O)C1(C)C=CC2(CCCCC2)N1C(C)=O (stereo unspecified) in this test? N

Which outcome was entered for the compound `CC[N+](C)(CC)CCC[n+]1c(-c2ccccc2)c2cc(N)ccc2c2ccc(N)cc21` in this test? Y

----------
# subject of test: Microtubule-associated protein tau (Homo sapiens) (UniProt P10636)
# method notes: qHTS Assay for Tau Filament Binding;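 also: actives lower thioflavin S fluorescence by blocking filaments or displacing dye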
# condition: recombinant tau filaments, thioflavin S fluorescence, 15 h, filaments grown with octadecylsulfate alongside compound; series mostly up to 57.1 µM
The campaign covered roughly 71,000 compounds. About 1,400 (2%) were called active. Roughly 3% stayed inconclusive and do not appear here. The call rests on the fitted dose curve; in most records, active means well fitted curve in the direction sought with a large enough effect; inconclusive means small, poorly fitted or top-dose-only effect; inactive means no such curve, though single readings can be large or run the other way. What follows is part of a selection rich in actives, with near analogues and random picks from the rest.
// classify into active, inactive

The following compounds have reported results that may help.
compound | label class
CC(C)OCCCNc1nc2c(c(=O)n(Cc3ccccc3F)c(=O)n2C)n1C | inactive
CCN(CC)C(=O)c1sc(NC(=O)c2ccco2)c(C#N)c1C | inactive
Cc1ccnc(SCCn2c(N(C)Cc3ccccc3)nc3c2c(=O)n(C)c(=O)n3C)n1 | inactive

# next compound below
Which outcome was entered for the compound `CC(C)C[C@@H](CC(=O)N[C@@H](CCC(=O)O)CC(=O)O)NC(=O)[C@@H]1CCCC[C@H]1NC(=O)C[C@@H](NC(=O)C[C@H](CO)NC(=O)[C@@H]1CCCC[C@H]1N)C(C)C` in this test? inactive

----------
# subject of test: Microtubule-associated protein tau (Homo sapiens) (UniProt P10636)
# method notes: qHTS Assay for Tau Filament Binding;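 also: actives lower thioflavin S fluorescence by blocking filaments or displacing dye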
# condition: recombinant tau filaments, thioflavin S fluorescence, 15 h, filaments grown with octadecylsulfate alongside compound; series mostly up to 57.1 µM
Out of some 71,000 compounds screened, about 1,400 (2%) were called active. About 3% were inconclusive and are not listed. Calls follow the shape of the dose curve; as a rule, active = well fitted curve in the direction sought with a large enough effect; inconclusive = small, poorly fitted or top-dose-only effect; inactive = no such curve, though single readings can be large or run the other way. The list comes from a sample in which actives are over-represented; it also holds close analogues and randomly drawn compounds.
// classify into class 1 = active, class 0 = inactive

The following compounds have reported results that may help.
compound | label class
CN(C)CCSc1nc(N)c2c3c(sc2n1)COC(C)(C)C3 | class 1
COc1cccc(-c2nc(Nc3ccncc3)c3ccccc3n2)c1 | class 0
COc1cc([C@H]2c3cc4c(cc3[C@@H](O[C@@H]3O[C@H]5CO[C@@H](C)O[C@]5(O)C[C@H]3O)[C@@H]3COC(=O)[C@H]23)OCO4)cc(OC)c1O | class 0
O=C(O)/C(=C/c1c(C(=O)O)[nH]c2cc(Cl)cc(Cl)c12)c1ccccc1 | class 0
Cc1cccc(C(=O)O)c1[N+](=O)[O-] | class 0

Which outcome was entered for the compound `CCCC(=O)Nc1cc(OCC)c(NC(=O)NC2CCCCC2)cc1OCC` in this test? class 0

Which outcome was entered for the compound `COC(=O)c1ccc(CN(c2ccccc2OC)S(=O)(=O)c2cccs2)o1` in this test? class 0

Which outcome was entered for the compound `CCCC[C@H]1C(=O)N(c2ccccc2)N(c2ccc(O)cc2)C1=O` in this test? class 0

----------
# subject of test: Microtubule-associated protein tau (Homo sapiens)
# method notes: qHTS Assay for Tau Filament Binding;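 also: actives lower thioflavin S fluorescence by blocking filaments or displacing dye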
# condition: recombinant tau filaments, thioflavin S fluorescence, 15 h, filaments grown with octadecylsulfate alongside compound; series mostly up to 57.1 µM
# Text: NIH Molecular Libraries Screening Centers Network [MLSCN] NIH Chemical Genomics Center [NCGC] Assay Provider: Jeffrey A. Kuret, Ohio State University Tau monomers form filaments in vitro in the presence of anionic detergents or fatty acids. The dye Thioflavine S (ThS) binds to tau filaments and upon binding, increases in fluorescence several fold. Small molecules that displace ThS binding or prevent filament binding are identified by a reduction in ThS fluorescence. […]
The whole screen tested about 71,000 compounds, of which about 1,400 (2%) were called active. About 3% were inconclusive and are not listed. The call rests on the fitted dose curve; in most records, active means well fitted curve in the direction sought with a large enough effect; inconclusive means small, poorly fitted or top-dose-only effect; inactive means no such curve, though single readings can be large or run the other way. For the sample, actives were picked, then their nearest neighbours and some compounds at random.
// classify into active, inactive

molecule | label class
CC(c1ccccc1)n1c(NCCCn2ccnc2)nc2c1c(=O)[nH]c(=O)n2C (stereo unspecified) | inactive

Which outcome was entered for the molecule COC(=O)C1(Cc2ccccc2)C=C2C(=C(C)C(=O)C2C)CN1 (stereo unspecified) in this test? inactive

Which outcome was entered for the molecule `O=C1c2ccccc2-c2ncnc3c(N4CCOCC4)cc(N4CCOCC4)c1c23` in this test? active

Which outcome was entered for the molecule `c1cnn(-c2cc(N3CCOCC3)ncn2)c1` in this test? inactive

Which outcome was entered for the molecule `COc1ccc(Cc2nnc(NC(=O)Cc3cccs3)s2)cc1` in this test? active

Which outcome was entered for the molecule `COc1ccc(Cc2nnc(NS(=O)(=O)Cc3ccccc3)s2)cc1` in this test? inactive

----------
# subject of test: Microtubule-associated protein tau (Homo sapiens)
# method notes: qHTS Assay for Tau Filament Binding;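 also: actives lower thioflavin S fluorescence by blocking filaments or displacing dye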
# condition: recombinant tau filaments, thioflavin S fluorescence, 15 h, filaments grown with octadecylsulfate alongside compound; series mostly up to 57.1 µM
Among all 71,000 compounds or so, about 1,400 (2%) were called active. Not shown: some 3% with an inconclusive outcome. The call rests on the fitted dose curve; in most records, active means well fitted curve in the direction sought with a large enough effect; inconclusive means small, poorly fitted or top-dose-only effect; inactive means no such curve, though single readings can be large or run the other way. This is one part of a sample in which actives are shown more often than they occur.
// classify into active, inactive

The following compounds have reported results that may help.
compound | label class
Cc1ccc(Nc2cc(=O)n(C3CCCCC3)c(=O)[nH]2)cc1C | inactive
CCCS(=O)(=O)Nc1c(C(=O)O)[nH]c2ccccc12 | active
COC(=O)CCCCCN1C(=O)NC(c2ccc(-c3ccccc3)cc2)C(C(=O)OCc2ccccc2)=C1C (configuration not stated) | inactive
CCOc1ccc(NC(=O)CCS(=O)(=O)c2cccc3nsnc23)cc1 | inactive
CC(=O)N1[C@H](C)C=C[C@]1(Cc1ccccc1)C(=O)NCc1ccccn1 | inactive
C1CCC2OC2C1 (configuration not stated) | inactive

# next compound below
Which outcome was entered for the compound `COC(=O)[C@H]1C[C@@H]1[C@H](NC(=O)Oc1ccc(F)cc1)c1ccccc1` in this test? inactive
